B1: LINE1-mini (parent)
chain: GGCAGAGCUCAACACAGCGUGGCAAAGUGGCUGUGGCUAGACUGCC

Variants of: B1
PROTOCOL_DETAILS: self-cleavage, relative activity (ratio to wild type); higher = more cleavage; in vitro, sequencing; the parent is a self-cleaving ribozyme
Binary classification by self-cleavage, with 0.07 as an inclusive lower bound for Condition met; all other cases are Condition not met.

U9G G17C: Condition met
C23U U32C: Condition met
A6U U20C: Condition met
A26G U34A: Condition not met
C10A A39C: Condition not met
C10U U32G: Condition met
G5U A12C: Condition not met
C10G C15G: Condition not met
A4G G5U: Condition met
C13A A41G: Condition met
C10U C42U: Condition met
U9C G17A: Condition not met
G7U C45G: Condition met
G21A U28A: Condition met
C15U G27A: Condition met
C13G G22U: Condition met
A14G G44U: Condition met
C8G C10A: Condition not met
U28A G40C: Condition met
C3U G21C: Condition met
G19A G35U: Condition met
A12C U32A: Condition not met
C23A A25U: Condition met
G35U G44A: Condition met
C10G G17A: Condition met
G7A C42U: Condition met
C15A G35C: Condition not met
C18U G44C: Condition met
G35C A41G: Condition met
G5U G7U: Condition met
A14C G44C: Condition met
A14C C23A: Condition met
G2C U32G: Condition not met
C8U A41U: Condition met
C13G U28G: Condition met
